Target or test system: T1, GFP-9S library array, motif 4 ND N98G;D124H (synthetic construct, N98G;D124H)
T1 chain: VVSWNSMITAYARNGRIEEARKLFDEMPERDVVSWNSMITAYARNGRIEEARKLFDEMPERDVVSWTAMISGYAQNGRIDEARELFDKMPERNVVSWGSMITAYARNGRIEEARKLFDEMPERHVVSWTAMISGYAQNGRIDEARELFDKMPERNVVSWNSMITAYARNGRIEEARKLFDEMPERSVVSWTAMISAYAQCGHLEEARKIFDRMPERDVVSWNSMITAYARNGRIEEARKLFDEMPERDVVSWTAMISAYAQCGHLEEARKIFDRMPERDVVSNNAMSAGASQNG
Test details: high-throughput RNA pulldown from lysate on Ni-NTA beads; HRP: 50 mM Tris pH 8, 150 mM NaCl, 1 mM beta-mercaptoethanol, 50 ug/ml BSA, 3 ug/ml yeast RNA, 0.5% heparin; ITC and FP: Tris pH 8, 200 mM KCl, 5% glycerol; MST: 50 mM Tris pH 8, 200 mM NaCl, 1 mM DTT, BSA, heparin, 0.05% Tween 20
Test conditions: tags: N-terminal His-eGFP; label: 5' IRDye 800CW
pKd: −log10 of the molar value.
Let's look at some binders and their measured pKd.
Endpoint name: pKd

>  <Binder>
AUUAAACGUGA (ssRNA) [IR-rpoA-A]

>  <Quantitative readout>
6.94

$$$$
>  <Binder>
AUUAUACGUGA (ssRNA) [IR-rpoA-U]

>  <Quantitative readout>
6.87

$$$$
